B1: scFv; the commonest letter at each place (parent)
chain 1: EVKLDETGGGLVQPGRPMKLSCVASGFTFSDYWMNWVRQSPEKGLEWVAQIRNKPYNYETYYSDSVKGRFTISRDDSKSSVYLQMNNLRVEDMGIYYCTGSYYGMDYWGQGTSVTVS
chain 2: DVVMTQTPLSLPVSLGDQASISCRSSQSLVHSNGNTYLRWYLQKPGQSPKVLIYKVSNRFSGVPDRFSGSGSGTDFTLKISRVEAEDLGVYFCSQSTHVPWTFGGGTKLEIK

Variants of: B1
Assay: yeast surface expression (ratio to wild type); higher = more expressed
Conditions: format: scFv 4-4-20, heavy + light
test_readout: yeast surface expression

mutation_label="chain 1 W33A V37W" test_readout="yeast surface expression" obs_value=0.625
mutation_label="chain 1 F29P Y32A" test_readout="yeast surface expression" obs_value=1.12
mutation_label="chain 1 S30M Y32H" test_readout="yeast surface expression" obs_value=0.872
mutation_label="chain 1 T28E F29Q" test_readout="yeast surface expression" obs_value=1
mutation_label="chain 1 Y102E W108I" test_readout="yeast surface expression" obs_value=0.763
mutation_label="chain 1 G100F" test_readout="yeast surface expression" obs_value=0.93
mutation_label="chain 1 S30K Y32E" test_readout="yeast surface expression" obs_value=0.857
mutation_label="chain 1 Y32G W33N" test_readout="yeast surface expression" obs_value=0.799
mutation_label="chain 1 S101M Y103D" test_readout="yeast surface expression" obs_value=0.917
mutation_label="chain 1 D31H V37Q" test_readout="yeast surface expression" obs_value=0.928
mutation_label="chain 1 G100H S101H" test_readout="yeast surface expression" obs_value=0.273
mutation_label="chain 1 S101I G104T" test_readout="yeast surface expression" obs_value=0.4
mutation_label="chain 1 Y102K Y107I" test_readout="yeast surface expression" obs_value=1
mutation_label="chain 1 N35V" test_readout="yeast surface expression" obs_value=0.596
mutation_label="chain 1 M105K D106E" test_readout="yeast surface expression" obs_value=1.01
mutation_label="chain 1 M105D Y107D" test_readout="yeast surface expression" obs_value=0.442
mutation_label="chain 1 M105L" test_readout="yeast surface expression" obs_value=0.924
mutation_label="chain 1 M105P" test_readout="yeast surface expression" obs_value=0.648
mutation_label="chain 1 S30T W36M" test_readout="yeast surface expression" obs_value=0.705
mutation_label="chain 1 F29A M34S" test_readout="yeast surface expression" obs_value=0.612
mutation_label="chain 1 N35W V37G" test_readout="yeast surface expression" obs_value=1.18
mutation_label="chain 1 T28W F29P S30F" test_readout="yeast surface expression" obs_value=0.601
mutation_label="chain 1 F29E Y32V" test_readout="yeast surface expression" obs_value=0.811
mutation_label="chain 1 T28V S30Q" test_readout="yeast surface expression" obs_value=1.1
mutation_label="chain 1 G100T M105C" test_readout="yeast surface expression" obs_value=0.754
mutation_label="chain 1 G100W Y107Q" test_readout="yeast surface expression" obs_value=0.323
mutation_label="chain 1 W36F V37N" test_readout="yeast surface expression" obs_value=0.509
mutation_label="chain 1 G100P S101T" test_readout="yeast surface expression" obs_value=0.486
mutation_label="chain 1 G104H" test_readout="yeast surface expression" obs_value=0.716
mutation_label="chain 1 G100I Y107P" test_readout="yeast surface expression" obs_value=0.276
mutation_label="chain 1 G100I S101E" test_readout="yeast surface expression" obs_value=0.652
mutation_label="chain 1 S30K N35G" test_readout="yeast surface expression" obs_value=1.03
mutation_label="chain 1 Y32K V37T" test_readout="yeast surface expression" obs_value=0.623
mutation_label="chain 1 Y102A W108P" test_readout="yeast surface expression" obs_value=0.525
mutation_label="chain 1 G104D Y107L" test_readout="yeast surface expression" obs_value=1.18
mutation_label="chain 1 M105R" test_readout="yeast surface expression" obs_value=1
mutation_label="chain 1 M34K W36M" test_readout="yeast surface expression" obs_value=0.273
mutation_label="chain 1 Y103T" test_readout="yeast surface expression" obs_value=0.896
mutation_label="chain 1 Y32A W36N" test_readout="yeast surface expression" obs_value=1.17
mutation_label="chain 1 S101Y D106E" test_readout="yeast surface expression" obs_value=0.627
mutation_label="chain 1 G100N G104N" test_readout="yeast surface expression" obs_value=0.347
mutation_label="chain 1 Y32A W33C" test_readout="yeast surface expression" obs_value=0.924
mutation_label="chain 1 Y103H W108R" test_readout="yeast surface expression" obs_value=0.35
mutation_label="chain 1 W108Q G109E" test_readout="yeast surface expression" obs_value=0.459
mutation_label="chain 1 W33G V37Y" test_readout="yeast surface expression" obs_value=0.672
mutation_label="chain 1 Y103Q M105T" test_readout="yeast surface expression" obs_value=0.874
mutation_label="chain 1 S101H Y103Q" test_readout="yeast surface expression" obs_value=0.871
mutation_label="chain 1 G104K W108Q" test_readout="yeast surface expression" obs_value=0.294
mutation_label="chain 1 D31T W33N" test_readout="yeast surface expression" obs_value=0.661
mutation_label="chain 1 N35L W36R" test_readout="yeast surface expression" obs_value=0.352
mutation_label="chain 1 Y32V V37L" test_readout="yeast surface expression" obs_value=0.677
mutation_label="chain 1 Y32E W36H" test_readout="yeast surface expression" obs_value=0.342
mutation_label="chain 1 F29L W33D W36S" test_readout="yeast surface expression" obs_value=0.585
mutation_label="chain 1 Y103W W108L" test_readout="yeast surface expression" obs_value=0.629
mutation_label="chain 1 Y102N" test_readout="yeast surface expression" obs_value=1.04
mutation_label="chain 1 M34A N35I" test_readout="yeast surface expression" obs_value=0.267
mutation_label="chain 1 Y102G Y103K G109K" test_readout="yeast surface expression" obs_value=0.425
mutation_label="chain 1 G100C M105F" test_readout="yeast surface expression" obs_value=0.642
mutation_label="chain 1 Y32L M34T W36I" test_readout="yeast surface expression" obs_value=0.622
mutation_label="chain 1 F29V Y32W M34W" test_readout="yeast surface expression" obs_value=1.07
mutation_label="chain 1 D31I W33D" test_readout="yeast surface expression" obs_value=0.632
mutation_label="chain 1 M34C W36L" test_readout="yeast surface expression" obs_value=0.524
mutation_label="chain 1 D31V M34R" test_readout="yeast surface expression" obs_value=0.17
mutation_label="chain 1 G100E D106H" test_readout="yeast surface expression" obs_value=0.289
mutation_label="chain 1 D31C M34P" test_readout="yeast surface expression" obs_value=0.56
mutation_label="chain 1 D31M Y32N" test_readout="yeast surface expression" obs_value=0.536
mutation_label="chain 1 M34V V37D" test_readout="yeast surface expression" obs_value=0.584
mutation_label="chain 1 S101Y Y107E" test_readout="yeast surface expression" obs_value=0.625
mutation_label="chain 1 Y107V G109E" test_readout="yeast surface expression" obs_value=0.339
mutation_label="chain 1 Y103P Y107E" test_readout="yeast surface expression" obs_value=0.763
mutation_label="chain 1 M105Y D106A" test_readout="yeast surface expression" obs_value=0.432
mutation_label="chain 1 Y103Q" test_readout="yeast surface expression" obs_value=1.33
mutation_label="chain 1 S30K W36E" test_readout="yeast surface expression" obs_value=1.31
mutation_label="chain 1 M34R" test_readout="yeast surface expression" obs_value=0.851
mutation_label="chain 1 T28Q F29Q V37S" test_readout="yeast surface expression" obs_value=0.421
